Origin of measurements: patent US20110263539A1

- Test system: J774.1a macrophage cells
- PROCEDURE DETAILS: Macrophage TNF-α production (Assay 2); note: key: a ‘+’ indicates a positive result for desired activity; a ‘−’ indicates a negative result for desired activity
- Format: cell-based
- RECORDED CONDITIONS: 10 μg/mL test compound, 100 ng/mL LPS, ELISA
PROPERTY LABEL: Assay Number 2: Macrophage TNF-α production

1. CC1(C)CCC[C@]2(C)[C@H]3Cc4cc(O)ccc4[C@]3(C)CC[C@@H]12 [Compound 121]
+
2. Cc1cc(O)c2c(c1)C[C@@H]1[C@@]3(C)CCCC(C)(C)[C@@H]3CC[C@@]21C [Compound 122]
−
3. Cc1cc(O)c(O)c2c1[C@]1(C)CCC3C(C)(C)CCC[C@]3(C)[C@H]1C2 (stereo partly shown) [AQX-016A]
+
4. Cc1cc(OC(=O)C(N)CCCCN)cc2c1[C@]1(C)CCC3C(C)(C)CCC[C@]3(C)[C@H]1C2 (stereo partly shown) [Compound 106]
+
